# Lookup of reported Hb concentration keyed by entry
- System: hemoglobin-haptoglobin complex
- Assay protocol: Stability of hemoglobin (as hemoglobin-haptoglobin complex) in samples preserved at 37° C. in preservation solution containing 1 unit/L haptoglobin, Hb measured by latex agglutination method (Examples 1 to 7)
- Design: species or system human
- Test settings: Feces 2; sugar 100 mmol/L, no phenylboronic acid; 37° C., 0 days
Result type: Hb concentration (µg/L)

>  <Smiles str>
OC[C@H]1O[C@@](CO)(O[C@H]2O[C@H](CO)[C@@H](O)[C@H](O)[C@H]2O)[C@@H](O)[C@@H]1O

>  <Target of assay>
hemoglobin-haptoglobin complex

>  <Value reported>
270

$$$$
>  <Smiles str>
OC[C@H]1O[C@H](O[C@H]2O[C@H](CO)[C@@H](O)[C@H](O)[C@H]2O)[C@H](O)[C@@H](O)[C@@H]1O

>  <Target of assay>
hemoglobin-haptoglobin complex

>  <Value reported>
264

$$$$
>  <Smiles str>
O=C(CO)[C@@H](O)[C@H](O)[C@H](O)CO

>  <Target of assay>
hemoglobin-haptoglobin complex

>  <Value reported>
273

$$$$
>  <Smiles str>
OC[C@@H](O)[C@@H](O)[C@H](O)[C@@H](O)CO

>  <Target of assay>
hemoglobin-haptoglobin complex

>  <Value reported>
277

$$$$
>  <Smiles str>
OC[C@@H](O)[C@@H](O)[C@H](O)[C@H](O)CO

>  <Target of assay>
hemoglobin-haptoglobin complex

>  <Value reported>
284

$$$$

* * *

# Lookup of reported Recovery ratio with respect to Hb concentration after 0 days keyed by entry
- Test system: hemoglobin-haptoglobin complex
- Assay protocol: Stability of hemoglobin (as hemoglobin-haptoglobin complex) in samples preserved at 37° C. in preservation solution containing 1 unit/L haptoglobin, Hb measured by latex agglutination method (Examples 1 to 7)
- Design: species or system human
- Test settings: Feces 2; sugar 100 mmol/L, no phenylboronic acid; 37° C., 21 days
Result type: Recovery ratio with respect to Hb concentration after 0 days (%)

>  <Smiles str>
O=C(CO)[C@@H](O)[C@H](O)[C@H](O)CO

>  <Unit abbrev>
%

>  <Value reported>
13

$$$$
>  <Smiles str>
OC[C@@H](O)[C@@H](O)[C@H](O)[C@@H](O)CO

>  <Unit abbrev>
%

>  <Value reported>
18

$$$$
>  <Smiles str>
OC[C@H]1O[C@@](CO)(O[C@H]2O[C@H](CO)[C@@H](O)[C@H](O)[C@H]2O)[C@@H](O)[C@@H]1O

>  <Unit abbrev>
%

>  <Value reported>
11

$$$$
>  <Smiles str>
OC[C@H]1O[C@H](O[C@H]2O[C@H](CO)[C@@H](O)[C@H](O)[C@H]2O)[C@H](O)[C@@H](O)[C@@H]1O

>  <Unit abbrev>
%

>  <Value reported>
16

$$$$

* * *

- Target of assay: hemoglobin (Homo sapiens, UniProt P68871+P69905)
- Sequence (P69905 2-142): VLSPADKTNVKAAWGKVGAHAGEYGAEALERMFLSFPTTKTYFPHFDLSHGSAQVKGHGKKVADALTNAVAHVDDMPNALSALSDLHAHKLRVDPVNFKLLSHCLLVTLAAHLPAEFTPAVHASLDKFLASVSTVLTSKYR
- Sequence (P68871 2-147): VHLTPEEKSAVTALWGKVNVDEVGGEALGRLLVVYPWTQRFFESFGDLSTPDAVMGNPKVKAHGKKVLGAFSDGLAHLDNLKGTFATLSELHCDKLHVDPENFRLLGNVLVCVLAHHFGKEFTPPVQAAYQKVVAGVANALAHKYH
- Assay protocol: Stability of hemoglobin in samples preserved at 37° C. in preservation solution containing no haptoglobin, Hb measured by latex agglutination method (Examples 8, 9 and Table 10)
- Test settings: No feces; 16 h at 37° C.; no phenylboronic acid, sugar 100 mmol/L
Result type: Recovery ratio with respect to Hb after 0 days (%)

>  <Smiles str>
OC[C@H]1O[C@@](CO)(O[C@H]2O[C@H](CO)[C@@H](O)[C@H](O)[C@H]2O)[C@@H](O)[C@@H]1O

>  <Unit abbrev>
%

>  <Value reported>
88

$$$$
>  <Smiles str>
OC[C@@H](O)[C@@H](O)[C@H](O)[C@@H](O)CO

>  <Unit abbrev>
%

>  <Value reported>
88

$$$$
>  <Smiles str>
O=C(CO)[C@@H](O)[C@H](O)[C@H](O)CO

>  <Unit abbrev>
%

>  <Value reported>
86

$$$$
>  <Smiles str>
OC[C@H]1O[C@H](O[C@H]2O[C@H](CO)[C@@H](O)[C@H](O)[C@H]2O)[C@H](O)[C@@H](O)[C@@H]1O

>  <Unit abbrev>
%

>  <Value reported>
86

$$$$
>  <Smiles str>
OC[C@@H](O)[C@@H](O)[C@H](O)[C@H](O)CO

>  <Unit abbrev>
%

>  <Value reported>
91

$$$$
